Target: E2F in nuclear extracts from F9 embryonal carcinoma cells
Assay: band shift with F9 nuclear extract; inhibition of E2F DNA binding
Ends that are not written are not given here.
Kindly state IC50 for each of the entries shown.
Record the value in µM, omitting the unit from your answer.

stdin: // IC50 lookup, key: GSRILTFRSGSWYAS [peptide SEQ ID NO:5 (…)]
stdout: 100

stdin: So what does the record say about IC50 for GSRILTFRSGSWYAS (also: tetravalent MAP core: 4 copies joined by C-terminus to Lys2-Lys-X core, Branched tetravalent peptide on a lysine MAP core) [MAP4-SEQ ID NO:5] ?
stdout: 10
